- System: PPARg DBDmut:RXRa IVT, anti-PPARg (DBD mutation: PPARg1 K132A/R137A, NR concentration 270 nM, RXRa partner concentration 90 nM)
- Test Name: PBM binding z-score (relative to random genomic background probes); higher = stronger binding; sequences stand for … in GC…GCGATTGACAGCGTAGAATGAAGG
Lab note: compare PBM binding z-score against 0.3. Equal or greater, write criterion met. Smaller, write criterion not met.

Known results for sequences:
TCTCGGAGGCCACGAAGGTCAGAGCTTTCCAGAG = criterion not met
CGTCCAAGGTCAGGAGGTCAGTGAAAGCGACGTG = criterion not met
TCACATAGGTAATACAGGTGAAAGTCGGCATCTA = criterion met
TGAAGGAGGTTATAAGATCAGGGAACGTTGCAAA = criterion met
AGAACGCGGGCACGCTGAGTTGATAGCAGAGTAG = criterion not met

QUERY: Check if PBM binding z-score >= 0.3 (inclusive). Item: "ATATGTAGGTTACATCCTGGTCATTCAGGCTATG"
RESULT: criterion met

QUERY: Check if PBM binding z-score >= 0.3 (inclusive). Item: "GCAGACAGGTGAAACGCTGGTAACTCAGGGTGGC"
RESULT: criterion not met

QUERY: Check if PBM binding z-score >= 0.3 (inclusive). Item: "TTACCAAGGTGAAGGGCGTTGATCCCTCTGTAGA"
RESULT: criterion not met

QUERY: Check if PBM binding z-score >= 0.3 (inclusive). Item: "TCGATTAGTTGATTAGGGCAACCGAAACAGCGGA"
RESULT: criterion not met

QUERY: Check if PBM binding z-score >= 0.3 (inclusive). Item: "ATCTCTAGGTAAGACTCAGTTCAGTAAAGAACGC"
RESULT: criterion met

QUERY: Check if PBM binding z-score >= 0.3 (inclusive). Item: "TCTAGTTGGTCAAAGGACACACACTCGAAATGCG"
RESULT: criterion met

QUERY: Check if PBM binding z-score >= 0.3 (inclusive). Item: "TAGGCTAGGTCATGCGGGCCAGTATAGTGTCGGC"
RESULT: criterion met

QUERY: Check if PBM binding z-score >= 0.3 (inclusive). Item: "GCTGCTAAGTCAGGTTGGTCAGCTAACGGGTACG"
RESULT: criterion not met

QUERY: Check if PBM binding z-score >= 0.3 (inclusive). Item: "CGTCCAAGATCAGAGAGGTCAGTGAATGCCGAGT"
RESULT: criterion not met

QUERY: Check if PBM binding z-score >= 0.3 (inclusive). Item: "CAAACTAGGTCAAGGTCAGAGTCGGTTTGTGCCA"
RESULT: criterion met
